MIC reference
System: Staphylococcus epidermidis EPI2
Measurement protocol: MIC, standard agar-dilution assay
Format: cell-based
Protocol conditions: Staphylococcus epidermidis, EPI2
Could you give me the number in µg/mL? Just the number is fine.

stdin: May I ask what MIC has been recorded for CCC1CC(C)C(=O)C=CC(C)=CC(COC(=O)Cc2ccccc2)C(CC)OC(=O)CC(O)C(C)C1OC1OC(C)C(O)C(N(C)C)C1O (stereo not drawn) ?
stdout: 0.5

stdin: // query MIC value for entry CCC1OC(=O)CC(O)C(C)C(OC2OC(C)C(O)C(N(C)C)C2O)C(CCNC)CC(C)C(=O)C=CC(C)=CC1CO (stereo not drawn) [Compound 3, 20-N-Methylamino-20-deoxy-20-dihydro-OMT]
stdout: 64

stdin: Bench note: what MIC did CCC1CC(C)C(=O)C=CC(C)=CC(COC(C)=O)C(CC)OC(=O)CC(O)C(C)C1OC1OC(C)C(OC(C)=O)C(N(C)C)C1OC(C)=O (stereo not drawn) show?
stdout: 4

stdin: State the recorded MIC for this entry: CCC1CC(C)C(=O)C=CC(C)=CC(COc2cccc(N(C)C)c2)C(CC)OC(=O)CC(O)C(C)C1OC1OC(C)C(O)C(N(C)C)C1O (stereo not drawn)
stdout: 0.5

stdin: Quick one: MIC of CCC1OC(=O)CC(O)C(C)C(OC2OC(C)C(OC(C)=O)C(N(C)C)C2OC(C)=O)C(CCOC(=O)Cc2ccccc2)CC(C)C(=O)C=CC(C)=CC1COC(=O)Cc1ccccc1 (stereo not drawn) ?
stdout: 2

stdin: MIC lookup needed for CCC1CC(C)C(=O)C=CC(C)=CC(COc2cccc(OC)c2OC)C(CC)OC(=O)CC(O)C(C)C1OC1OC(C)C(O)C(N(C)C)C1O (stereo not drawn) , thanks.
stdout: 0.25

====

System: Pasteurella multocida 60A
Measurement protocol: MIC, conventional broth-dilution microtiter test
Format: cell-based
Protocol conditions: Pasteurella multocida, 60A
Below is a list of entries, each paired with its recorded MIC value.
Answer with a number only, understood to be in µg/mL.

Observe how each entry below is paired with its result.
CCC1OC(=O)CC(O)C(C)C(OC2OC(C)C(OC(C)=O)C(N(C)C)C2OC(C)=O)C(CCOC(=O)Cc2ccccc2)CC(C)C(=O)C=CC(C)=CC1COC(=O)Cc1ccccc1 (centres unmarked) | 50
CCC1OC(=O)CC(O)C(C)C(OC2OC(C)C(O)C(N(C)C)C2O)C(CCOc2ccccc2)CC(C)C(=O)C=CC(C)=CC1CN1CCCCCCC1 (centres unmarked) | 6.25
CCC1OC(=O)CC(O)C(C)C(OC2OC(C)C(O)C(N(C)C)C2O)C(CCOc2ccccc2)CC(C)C(=O)C=CC(C)=CC1COc1ccccc1 (centres unmarked) [Compound 32, 20,23-Di-O-phenyl-20-dihydro-OMT] | 3.12
CCC1CC(C)C(=O)C=CC(C)=CC(COC(=O)Cc2ccccc2)C(CC)OC(=O)CC(O)C(C)C1OC1OC(C)C(O)C(N(C)C)C1O (centres unmarked) | 3.12

# next compound below
stdin: For CCC1OC(=O)CC(O)C(C)C(OC2OC(C)C(OC3CC(C)(O)C(O)C(C)O3)C(N(C)C)C2O)C(CCNCc2ccccc2)CC(C)C(=O)C=CC(C)=CC1C (centres unmarked) , what is its reported MIC?
stdout: 50

====

Each entry below lists one item and its recorded MIC value.
System: Pasteurella hemolytica 22C
Measurement protocol: MIC, conventional broth-dilution microtiter test
Format: cell-based
Protocol conditions: broth-dilution microtiter; Pasteurella hemolytica 22C; read-out: MIC

CCC1OC(=O)CC(O)C(C)C(OC2OC(C)C(O)C(N(C)C)C2O)C(CCN2C(=O)c3ccccc3C2=O)CC(C)C(=O)C=CC(C)=CC1C (stereo not drawn) [Compound 22] | 50 µg/mL
CCC1OC(=O)CC(O)C(C)C(OC2OC(C)C(O)C(N(C)C)C2O)C(CCNCCc2ccccc2)CC(C)C(=O)C=CC(C)=CC1CO (stereo not drawn) [Compound 5] | 6.25 µg/mL
CCC1OC(=O)CC(O)C(C)C(OC2OC(C)C(O)C(N(C)C)C2O)C(CCO)CC(C)C(=O)C=CC(C)=CC1CN1CCCCCCC1 (stereo not drawn) [Compound 58] | 0.78 µg/mL
CCC1OC(=O)CC(O)C(C)C(OC2OC(C)C(O)C(N(C)C)C2O)C(CCN2C(=O)c3ccccc3C2=O)CC(C)C(=O)C=CC(C)=CC1CN1C(=O)c2ccccc2C1=O (stereo not drawn) [Compound 31] | > 50 µg/mL
CCC1CC(C)C(=O)C=CC(C)=CC(COc2cccc(OC)c2OC)C(CC)OC(=O)CC(O)C(C)C1OC1OC(C)C(O)C(N(C)C)C1O (stereo not drawn) [Compound 47] | 25 µg/mL

stdin: Can you look up the measured MIC of CCC1OC(=O)CC(O)C(C)C(OC2OC(C)C(OC3CC(C)(O)C(O)C(C)O3)C(N(C)C)C2O)C(CCN2C(=O)c3ccccc3C2=O)CC(C)C(=O)C=CC(C)=CC1CO (stereo not drawn) [Compound 17, 20-N-Phthalimido-20-deoxy-20-dihydro-DMT] for me?
stdout: > 50 µg/mL

====

Test system: Staphylococcus aureus
Measurement protocol: MIC, conventional broth-dilution microtiter test
Format: cell-based
Protocol conditions: broth-dilution microtiter, read-out: MIC
Protocol: Certain of the derivatives are active against some gram-negative bacteria, such as Pasteurella species. The MIC's in Table II were determined by standard agar-dilution assays. The MIC's in Table III were obtained using a conventional broth-dilution microtiter test.
# Lookup of reported MIC keyed by entry
API: value field is a number in µg/mL; no unit string.

Consider the following illustrative entries.
CCC1OC(=O)CC(O)C(C)C(OC2OC(C)C(OC3CC(C)(O)C(O)C(C)O3)C(N(C)C)C2O)C(CCNCCc2ccccc2)CC(C)C(=O)C=CC(C)=CC1CO (centres unmarked) | 12.5
CCC1CC(C)C(=O)C=CC(C)=CC(CSc2ccccc2)C(CC)OC(=O)CC(O)C(C)C1OC1OC(C)C(O)C(N(C)C)C1O (centres unmarked) | 1.56
CCC1OC(=O)CC(O)C(C)C(OC2OC(C)C(O)C(N(C)C)C2O)C(CCNCCc2ccccc2)CC(C)C(=O)C=CC(C)=CC1CO (centres unmarked) | 6.25
CCC1OC(=O)CC(O)C(C)C(OC2OC(C)C(O)C(N(C)C)C2O)C(CCNCc2ccccc2)CC(C)C(=O)C=CC(C)=CC1CO (centres unmarked) [Compound 4, 20-N-Benzylamino-20-deoxy-20-dihydro-OMT] | 12.5
CCC1OC(=O)CC(O)C(C)C(OC2OC(C)C(O)C(N(C)C)C2O)C(CCNC)CC(C)C(=O)C=CC(C)=CC1CO (centres unmarked) [Compound 3, 20-N-Methylamino-20-deoxy-20-dihydro-OMT] | 50
CCC1OC(=O)CC(O)C(C)C(OC2OC(C)C(OC3CC(C)(O)C(O)C(C)O3)C(N(C)C)C2O)C(CCNCc2ccccc2)CC(C)C(=O)C=CC(C)=CC1C (centres unmarked) | 12.5

stdin: Using the record for CCC1OC(=O)CC(O)C(C)C(OC2OC(C)C(OC3CC(C)(O)C(O)C(C)O3)C(N(C)C)C2O)C(CCN2C(=O)c3ccccc3C2=O)CC(C)C(=O)C=CC(C)=CC1CN1C(=O)c2ccccc2C1=O (centres unmarked) , report its MIC.
stdout: 25

====

// reported MIC for each item listed
System: Escherichia coli EC14
Measurement protocol: MIC, standard agar-dilution assay
Format: cell-based
Protocol conditions: Escherichia coli, EC14
Please reply with the bare figure in mg/L and do not write the unit itself.

// known answers, use as guide
CCC1OC(=O)CC(O)C(C)C(OC2OC(C)C(O)C(N(C)C)C2O)C(CCNCCc2ccccc2)CC(C)C(=O)C=CC(C)=CC1CO (stereo not drawn) | 64
CCC1OC(=O)CC(O)C(C)C(OC2OC(C)C(O)C(N(C)C)C2O)C(CCOC(=O)Cc2ccccc2)CC(C)C(=O)C=CC(C)=CC1CO (stereo not drawn) [Compound 1, 20-O-Phenylacetyl-20-dihydro-OMT] | 64
CCC1OC(=O)CC(O)C(C)C(OC2OC(C)C(O)C(N(C)C)C2O)C(CCNCc2ccccc2)CC(C)C(=O)C=CC(C)=CC1CO (stereo not drawn) [Compound 4, 20-N-Benzylamino-20-deoxy-20-dihydro-OMT] | 128

stdin: Can you share its MIC? I mean this compound: CCC1OC(=O)CC(O)C(C)C(OC2OC(C)C(O)C(N(C)C)C2O)C(CCO)CC(C)C(=O)C=CC(C)=CC1CN1CCCCCCC1 (stereo not drawn)
stdout: 64

stdin: Which MIC value belongs to CCC1CC(C)C(=O)C=CC(C)=CC(COC(=O)Cc2ccccc2)C(CC)OC(=O)CC(O)C(C)C1OC1OC(C)C(O)C(N(C)C)C1O (stereo not drawn) ?
stdout: 128

stdin: Query (compound): CCC1OC(=O)CC(O)C(C)C(OC2OC(C)C(O)C(N(C)C)C2O)C(CCO)CC(C)C(=O)C=CC(C)=CC1COC(=O)CCc1ccccc1 (stereo not drawn) [Compound 52, 20-Dihydro-23-O-phenylpropionyl-OMT] ; field requested: MIC
stdout: 64
